Entries and their measured koff follow.
Target: T1, hPRLR.mFc (soluble dimeric human PRLR) (human)
T1 construct: dimeric PRLR construct
T1 chain: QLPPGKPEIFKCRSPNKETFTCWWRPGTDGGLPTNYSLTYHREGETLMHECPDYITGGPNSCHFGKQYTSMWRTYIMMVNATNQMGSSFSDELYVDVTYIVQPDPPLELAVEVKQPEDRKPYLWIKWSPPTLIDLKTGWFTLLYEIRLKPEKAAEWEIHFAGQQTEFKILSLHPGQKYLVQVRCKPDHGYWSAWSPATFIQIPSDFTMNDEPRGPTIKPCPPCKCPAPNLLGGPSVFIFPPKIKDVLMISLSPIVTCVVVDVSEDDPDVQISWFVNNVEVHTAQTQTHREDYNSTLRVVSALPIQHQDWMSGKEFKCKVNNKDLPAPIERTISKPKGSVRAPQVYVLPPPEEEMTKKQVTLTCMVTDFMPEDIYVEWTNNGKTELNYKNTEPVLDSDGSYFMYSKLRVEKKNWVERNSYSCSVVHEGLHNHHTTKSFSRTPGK
Assay: SPR Biacore, 25 C, mAb capture
# unit: s⁻¹ | format: bare number

For orientation, consider the following solved cases.
binder: H1H6774P (antibody, human IgG1, V domains shown, Human IgG1 Fc (H1H)) VH: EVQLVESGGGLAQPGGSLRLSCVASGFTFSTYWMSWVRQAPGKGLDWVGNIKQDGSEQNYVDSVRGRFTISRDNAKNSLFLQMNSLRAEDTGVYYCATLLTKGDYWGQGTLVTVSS VL: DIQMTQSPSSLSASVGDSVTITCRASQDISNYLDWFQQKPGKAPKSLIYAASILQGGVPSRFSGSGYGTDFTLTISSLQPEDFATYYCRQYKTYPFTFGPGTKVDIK
koff, s⁻¹: 8.94e-05

binder: H1H6797P (antibody, human IgG1, V domains shown, Human IgG1 Fc (H1H)) VH: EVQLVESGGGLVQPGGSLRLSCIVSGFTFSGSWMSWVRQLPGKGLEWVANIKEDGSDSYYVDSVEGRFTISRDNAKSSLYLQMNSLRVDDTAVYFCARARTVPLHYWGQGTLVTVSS VL: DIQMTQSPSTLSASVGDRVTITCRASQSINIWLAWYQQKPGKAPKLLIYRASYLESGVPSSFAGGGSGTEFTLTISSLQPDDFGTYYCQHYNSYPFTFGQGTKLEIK
koff, s⁻¹: 0.000119

Let us examine a further case.
Look at this binder and give its reported koff. H1H6795P (antibody, human IgG1, V domains shown, Human IgG1 Fc (H1H)) VH: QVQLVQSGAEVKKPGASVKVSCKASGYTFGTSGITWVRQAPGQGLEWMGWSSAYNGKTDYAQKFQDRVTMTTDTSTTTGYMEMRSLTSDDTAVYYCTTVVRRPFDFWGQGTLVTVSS VL: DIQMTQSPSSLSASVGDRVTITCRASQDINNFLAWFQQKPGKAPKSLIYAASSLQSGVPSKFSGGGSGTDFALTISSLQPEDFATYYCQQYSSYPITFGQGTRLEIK
8.41e-05
